Each record here notes measured T/C.
system: P388 leukemia ip, CD2F1 mice, survival T/C; assay: NCI In Vivo Anticancer Drug Screen. Data for tumor model P388 Leukemia (intraperitoneal) in CD2F1 (CDF1) mice; conditions: endpoint: median survival time; dose: 100.0 mg/kg/injection; schedule: Q01DX005 (ip); vehicle: saline; higher = longer survival
Toxic doses and inconclusive results are not listed.

Worked set:
C/C(N)=N/OCc1ccccc1; 107 % of control
O=C1C(N=Nc2ccc(S(=O)(=O)Nc3ccccn3)cc2)C(=O)N(c2ccc(Cl)cc2)C(=S)N1c1ccc(Cl)cc1; 114 % of control
NC(N)=NC(N)=NCCS(=O)(=O)O; 110 % of control
CN(C)CCN1c2ccccc2Oc2ccccc21; 95 % of control
O=C(c1ccccc1)c1ccc[n+](Cc2ccccc2)c1; 109 % of control

Next up:
## Input P388 leukemia ip, CD2F1 mice, survival T/C / T/C / Cc1c(C)[n+](=O)c2ccccc2n1[O-] : value?
## Output 108 % of control

Values compiled from PubChem BioAssay AID330.
